# key: entry, value: interaction score
- measuredTarget: T1, 4H797-bA
- T1 chain: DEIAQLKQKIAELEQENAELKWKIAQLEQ
- testDescription: two-hybrid library CCNG1;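 further: natural log of median RNA to DNA barcode read ratio; higher means stronger binding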
Give your answer as a number; write no unit.

Use the examples below as a reference point.
Recorded interaction score for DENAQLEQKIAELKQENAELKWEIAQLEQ [4H1369-bA] , please?
-0.836

Need interaction score of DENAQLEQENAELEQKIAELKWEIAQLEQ [4H1193-bA] , thanks.
-1.03

Look up interaction score: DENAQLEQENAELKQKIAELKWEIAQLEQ [4H1257-bA]
-0.933

Let's switch to this binder now.
For the binder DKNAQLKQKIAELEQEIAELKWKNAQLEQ [4H3855-bA] , what interaction score is on record?
-0.875
